System: OVCAR-8 ovarian
test.details: NCI tumour cell line growth inhibition, 48 h
endpoint: TGI

Example entries begin here.
molecule	assayed.system	TGI
COC(=O)C(=O)C(C#N)c1cccc2ccccc12 (stereo unspecified)	OVCAR-8 ovarian	> 100 µM
Cc1c(-c2ccccc2)c(C#N)c2nnn(-c3ccccc3)c(=O)n12	OVCAR-8 ovarian	> 100 µM
Cc1cccc2c1C(=O)C1(Cc3ccccc3C1=O)C2 (stereo unspecified)	OVCAR-8 ovarian	> 100 µM

Ask: Tell us which TGI value is on record for COC1OC(OC)C2C(c3c(C)cc(C)cc3C)=NOC12 (stereo unspecified)
Result: > 100 µM

Ask: Tell us which TGI value is on record for COC(=O)C1=Cc2cc3c(cc2[C@H](c2ccc4c(c2)OCO4)C1C(=O)OC)OCO3 (stereo partly specified)
Result: > 100 µM

Ask: Tell us which TGI value is on record for O=C(Nc1ccccc1)c1cc2c(cc1Cl)Sc1nccn1S2(=O)=O
Result: > 100 µM
